target: Peroxisomal bifunctional enzyme (Rattus norvegicus); assay: Liver peroxisomal enoyl-CoA hydratase activity in rats
Classify as follows. Reported Activity (uM min-1 mg-1) greater than or equal to 20: MET. Reported Activity (uM min-1 mg-1) below: NOT MET.

> print(dat)
                                 mol.smiles                             target.system  label.value
1        CC(C)(CCCCCCC(C)(C)CC(=O)O)CC(=O)O  Peroxisomal bifunctional enzyme (Rattus norvegicus)      NOT MET
2  CC(C)(CCCCCCCCCCCCCCCCC(C)(C)CC(=O)O)CC(=O)O  Peroxisomal bifunctional enzyme (Rattus norvegicus)      NOT MET
3  CC(C)(CCCCCCCCCCCCCCC(C)(C)CC(=O)O)CC(=O)O  Peroxisomal bifunctional enzyme (Rattus norvegicus)      NOT MET
4      CC(C)(CCCCCCCCC(C)(C)CC(=O)O)CC(=O)O  Peroxisomal bifunctional enzyme (Rattus norvegicus)      NOT MET
5    CC(C)(CCCCCCCCCCC(C)(C)CC(=O)O)CC(=O)O  Peroxisomal bifunctional enzyme (Rattus norvegicus)          MET
6  CC(C)(CCCCCCCCCCCCC(C)(C)CC(=O)O)CC(=O)O  Peroxisomal bifunctional enzyme (Rattus norvegicus)      NOT MET

----------
Target: ATP-citrate synthase (Rattus norvegicus, UniProt P16638)
Sequence (P16638 whole entry): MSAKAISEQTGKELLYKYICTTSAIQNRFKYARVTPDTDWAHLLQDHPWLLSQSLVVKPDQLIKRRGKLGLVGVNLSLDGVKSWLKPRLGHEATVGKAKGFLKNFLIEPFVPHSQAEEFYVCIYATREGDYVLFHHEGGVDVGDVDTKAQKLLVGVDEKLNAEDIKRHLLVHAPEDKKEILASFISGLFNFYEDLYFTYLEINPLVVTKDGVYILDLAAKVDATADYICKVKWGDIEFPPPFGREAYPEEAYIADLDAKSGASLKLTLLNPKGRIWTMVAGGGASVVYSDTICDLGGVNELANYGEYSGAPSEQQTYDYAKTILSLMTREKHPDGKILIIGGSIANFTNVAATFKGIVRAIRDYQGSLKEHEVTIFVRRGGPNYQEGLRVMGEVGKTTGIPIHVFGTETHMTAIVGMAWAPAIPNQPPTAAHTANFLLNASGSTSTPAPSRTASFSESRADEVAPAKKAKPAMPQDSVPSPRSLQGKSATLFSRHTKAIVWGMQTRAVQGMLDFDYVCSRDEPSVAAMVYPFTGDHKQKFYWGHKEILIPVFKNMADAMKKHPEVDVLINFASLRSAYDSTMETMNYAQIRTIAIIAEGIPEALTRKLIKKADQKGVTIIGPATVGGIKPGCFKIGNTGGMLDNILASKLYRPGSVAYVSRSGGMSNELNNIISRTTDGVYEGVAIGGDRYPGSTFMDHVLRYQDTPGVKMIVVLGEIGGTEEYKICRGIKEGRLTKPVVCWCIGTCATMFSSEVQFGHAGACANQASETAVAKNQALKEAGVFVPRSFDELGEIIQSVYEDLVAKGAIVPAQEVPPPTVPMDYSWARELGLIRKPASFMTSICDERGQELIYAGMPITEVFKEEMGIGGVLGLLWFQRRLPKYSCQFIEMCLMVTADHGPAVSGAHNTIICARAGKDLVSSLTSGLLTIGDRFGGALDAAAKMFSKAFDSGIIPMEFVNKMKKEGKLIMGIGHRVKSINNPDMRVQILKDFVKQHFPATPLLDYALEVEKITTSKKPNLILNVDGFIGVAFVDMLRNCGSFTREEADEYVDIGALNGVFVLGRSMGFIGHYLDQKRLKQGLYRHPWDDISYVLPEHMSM
Assay: Inhibition against ATP-citrate lyase in liver.
Type: tissue-based
pKi: −log10 of the molar value.
reported.metric: pKi

> print(dat)
                               mol.smiles  reported.result
1  CC(C)(CCCCCCCCCCC(C)(C)CC(=O)O)CC(=O)O             4.80

----------
This listing pairs compounds with measured pIC50.
species on record: Rattus norvegicus; assay: Inhibition of lipid synthesis, by incorporation of 3H20 into saponified fatty acids in cultured rat hepatocytes; type: functional; conditions: Hepatocyte, read-out: I50
pIC50: −log10 of the molar value.
reported.metric: pIC50

> print(dat)
                                 mol.smiles  reported.result
1  CC(C)(CCCCCCCCCCCCC(C)(C)CC(=O)O)CC(=O)O             3.82
2  CC(C)(CCCCCCCCCCCCCCCCC(C)(C)CC(=O)O)CC(=O)O             3.40
3      CC(C)(CCCCCCCCC(C)(C)CC(=O)O)CC(=O)O             4.00
4  CC(C)(CCCCCCCCCCCCCCC(C)(C)CC(=O)O)CC(=O)O             3.52
5        CC(C)(CCCCCCC(C)(C)CC(=O)O)CC(=O)O             3.52
6    CC(C)(CCCCCCCCCCC(C)(C)CC(=O)O)CC(=O)O             4.10

----------
molecular target: ATP-citrate synthase (Rattus norvegicus); assay: Inhibition against ATP-citrate lyase in rat liver.
reported.metric: Ki (µM)

> print(dat)
                             mol.smiles  reported.result
1  CC(C)(CCCCCCCCC(C)(C)CC(=O)O)CC(=O)O               56

----------
tested on: Rattus norvegicus; test: In vivo lipid synthesis as percent of nontreated control by incorporation of 3H20 into 3-beta-hydroxysterols in rat, at 0.1%(w/w) in diet for three days
reported.metric: Incorporation (%)

> print(dat)
                                   molecule  reported.metric  result.unit  reported.result
1    CC(C)(CCCCCCCCCCC(C)(C)CC(=O)O)CC(=O)O    Incorporation            %               40
2  CC(C)(C/C=C/c1ccc(/C=C/CC(C)(C)CC(=O)O)cc1)CC(=O)O    Incorporation            %               57
3  CC(C)(C/C=C\c1ccc(/C=C\CC(C)(C)CC(=O)O)cc1)CC(=O)O    Incorporation            %               97
4  CC(C)(C/C=C\c1ccc(/C=C/CC(C)(C)CC(=O)O)cc1)CC(=O)O    Incorporation            %               37
5  CC(C)(CCCC1CCC(CCCC(C)(C)CC(=O)O)CC1)CC(=O)O (stereo unspecified)    Incorporation            %               71
6  CC(C)(CCCc1ccc(CCCC(C)(C)CC(=O)O)cc1)CC(=O)O    Incorporation            %               65

----------
Target: ATP-citrate synthase (Rattus norvegicus)
Sequence (P16638 whole entry): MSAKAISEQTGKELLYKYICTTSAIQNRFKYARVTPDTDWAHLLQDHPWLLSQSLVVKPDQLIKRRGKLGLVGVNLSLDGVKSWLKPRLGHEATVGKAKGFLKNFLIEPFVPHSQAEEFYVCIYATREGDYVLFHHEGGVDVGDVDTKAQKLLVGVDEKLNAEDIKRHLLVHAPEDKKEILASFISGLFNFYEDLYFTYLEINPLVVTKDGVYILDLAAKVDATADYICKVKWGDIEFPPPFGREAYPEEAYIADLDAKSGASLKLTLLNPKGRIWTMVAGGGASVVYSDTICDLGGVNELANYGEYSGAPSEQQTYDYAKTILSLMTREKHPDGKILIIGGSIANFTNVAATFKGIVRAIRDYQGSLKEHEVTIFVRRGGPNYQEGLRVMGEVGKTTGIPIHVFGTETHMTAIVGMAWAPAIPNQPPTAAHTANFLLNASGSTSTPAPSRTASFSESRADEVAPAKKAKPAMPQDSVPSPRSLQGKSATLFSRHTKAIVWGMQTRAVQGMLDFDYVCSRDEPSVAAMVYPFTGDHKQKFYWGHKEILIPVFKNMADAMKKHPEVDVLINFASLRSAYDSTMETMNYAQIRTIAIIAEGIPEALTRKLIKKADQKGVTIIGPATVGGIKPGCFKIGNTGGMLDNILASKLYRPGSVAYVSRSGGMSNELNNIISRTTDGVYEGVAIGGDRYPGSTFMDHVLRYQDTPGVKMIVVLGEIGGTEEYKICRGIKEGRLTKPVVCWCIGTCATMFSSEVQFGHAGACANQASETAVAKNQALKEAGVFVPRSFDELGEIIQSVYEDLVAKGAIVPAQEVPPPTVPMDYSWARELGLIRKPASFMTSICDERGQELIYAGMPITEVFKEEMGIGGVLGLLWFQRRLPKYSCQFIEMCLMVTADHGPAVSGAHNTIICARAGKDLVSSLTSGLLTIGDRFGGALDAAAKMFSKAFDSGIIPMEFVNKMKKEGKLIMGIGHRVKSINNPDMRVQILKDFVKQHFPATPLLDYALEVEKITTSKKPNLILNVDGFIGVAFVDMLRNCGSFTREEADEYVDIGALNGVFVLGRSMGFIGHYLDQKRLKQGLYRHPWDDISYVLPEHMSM
Assay: Inhibition against ATP-citrate lyase in rat liver
Type: tissue-based
pKi: −log10 of the molar value.
reported.metric: pKi

> print(dat)
                           mol.smiles                             target.system  reported.result
1  CC(C)(CCCCCCC(C)(C)CC(=O)O)CC(=O)O  ATP-citrate synthase (Rattus norvegicus)             3.51
